# test method notes: Circular dichroism (CD) spectroscopy of HABD2 peptides in Milli-Q water (Example 1)
# Assay type: physicochemical
# measurement setup: λ = 222 nm; 0.5 mM in Milli-Q water
Bridges are numbered along the chain shown (N, C = ends).
As shown below, each of these substances has a reported Molar ellipticity [θ]222 value.

substance="Ac-VSKLRSQLVKRKQN-NH2 [Compound 132]" experimental_result="−1339.76 deg cm^2 dmol^−1 residue^−1"
substance="H-(cyclo-6,10)-VSKLR[EQLVK]RKQN-NH2 (H-VSKLREQLVKRKQN-NH2; lactam 6-10; SMILES CC(C)C[C@H](NC(=O)[C@H](CCCCN)NC(=O)[C@H](CO)NC(=O)[C@@H](N)C(C)C)C(=O)N[C@@H](CCCNC(=N)N)C(=O)N[C@H]1CCC(=O)NCCCC[C@@H](C(=O)N[C@@H](CCCNC(=N)N)C(=O)N[C@@H](CCCCN)C(=O)N[C@@H](CCC(N)=O)C(=O)N[C@@H](CC(N)=O)C(N)=O)NC(=O)[C@H](C(C)C)NC(=O)[C@H](CC(C)C)NC(=O)[C@H](CCC(N)=O)NC1=O) [Compound 135]" experimental_result="−4400.73 deg cm^2 dmol^−1 residue^−1"

--- query ---
For the substance H-(cyclo-5,9)-VSKL[ESQLK]KRKQN-NH2 (H-VSKLESQLKKRKQN-NH2; lactam 5-9; SMILES CC(C)C[C@@H]1NC(=O)[C@H](CCC(N)=O)NC(=O)[C@H](CO)NC(=O)[C@@H](NC(=O)[C@H](CC(C)C)NC(=O)[C@H](CCCCN)NC(=O)[C@H](CO)NC(=O)[C@@H](N)C(C)C)CCC(=O)NCCCC[C@@H](C(=O)N[C@@H](CCCCN)C(=O)N[C@@H](CCCNC(=N)N)C(=O)N[C@@H](CCCCN)C(=O)N[C@@H](CCC(N)=O)C(=O)N[C@@H](CC(N)=O)C(N)=O)NC1=O) [Compound 134] , give its measured Molar ellipticity [θ]222 value.
−4403.89 deg cm^2 dmol^−1 residue^−1

====

# test method notes: Circular dichroism (CD) spectroscopy of linear and stapled peptides in water or 40% TFE/water (Example 3)
# Format: physicochemical
# measurement setup: [θ]222/[θ]208 ratio in water; summary tables 15, 17, 19
Bridges are numbered along the chain shown (N, C = ends).
As shown below, each of these substances has a reported [θ]222/[θ]208 ratio of ellipticities value.

Some entries whose results are on file:
substance="Ac-VSKLRSQLVKRKQN-NH2 [Compound 132]" experimental_readout="[θ]222/[θ]208 ratio of ellipticities" experimental_result=0.13
substance="Ac-(cyclo-5,9)-VSKL[KSQLE]KRKQN-NH2 (Ac-VSKLKSQLEKRKQN-NH2; lactam 5-9; SMILES CC(=O)N[C@H](C(=O)N[C@@H](CO)C(=O)N[C@@H](CCCCN)C(=O)N[C@@H](CC(C)C)C(=O)N[C@H]1CCCCNC(=O)CC[C@@H](C(=O)N[C@@H](CCCCN)C(=O)N[C@@H](CCCNC(=N)N)C(=O)N[C@@H](CCCCN)C(=O)N[C@@H](CCC(N)=O)C(=O)N[C@@H](CC(N)=O)C(N)=O)NC(=O)[C@H](CC(C)C)NC(=O)[C@H](CCC(N)=O)NC(=O)[C@H](CO)NC1=O)C(C)C) [Compound 154]" experimental_readout="[θ]222/[θ]208 ratio of ellipticities" experimental_result=0.20
substance="Ac-NLKQKIKHVVKLKDE-NH2 [Compound 156]" experimental_readout="[θ]222/[θ]208 ratio of ellipticities" experimental_result=0.11
substance="Ac-(cyclo-5,9)-VSKL[ESQLK]KRKQN-NH2 (Ac-VSKLESQLKKRKQN-NH2; lactam 5-9; SMILES CC(=O)N[C@H](C(=O)N[C@@H](CO)C(=O)N[C@@H](CCCCN)C(=O)N[C@@H](CC(C)C)C(=O)N[C@H]1CCC(=O)NCCCC[C@@H](C(=O)N[C@@H](CCCCN)C(=O)N[C@@H](CCCNC(=N)N)C(=O)N[C@@H](CCCCN)C(=O)N[C@@H](CCC(N)=O)C(=O)N[C@@H](CC(N)=O)C(N)=O)NC(=O)[C@H](CC(C)C)NC(=O)[C@H](CCC(N)=O)NC(=O)[C@H](CO)NC1=O)C(C)C) [Compound 151]" experimental_readout="[θ]222/[θ]208 ratio of ellipticities" experimental_result=0.70
substance="Ac-(cyclo-10-14, cyclo-15-19)-KIKHVVKLK[KENSE][EKSEK]SKLRSQLVKRK-NH2 [Compound 269]" experimental_readout="[θ]222/[θ]208 ratio of ellipticities" experimental_result=0.44

For the substance Ac-(cyclo-6,10)-VSKLR[KQLVE]RKQN-NH2 (Ac-VSKLRKQLVERKQN-NH2; lactam 6-10; SMILES CC(=O)N[C@H](C(=O)N[C@@H](CO)C(=O)N[C@@H](CCCCN)C(=O)N[C@@H](CC(C)C)C(=O)N[C@@H](CCCNC(=N)N)C(=O)N[C@H]1CCCCNC(=O)CC[C@@H](C(=O)N[C@@H](CCCNC(=N)N)C(=O)N[C@@H](CCCCN)C(=O)N[C@@H](CCC(N)=O)C(=O)N[C@@H](CC(N)=O)C(N)=O)NC(=O)[C@H](C(C)C)NC(=O)[C@H](CC(C)C)NC(=O)[C@H](CCC(N)=O)NC1=O)C(C)C) [Compound 155] , give its measured [θ]222/[θ]208 ratio of ellipticities value.
0.37

For the substance Ac-(cyclo-8,12)-NLKQKIK[EVVKK]KDE-NH2 (Ac-NLKQKIKEVVKKKDE-NH2; lactam 8-12; SMILES CC[C@H](C)[C@H](NC(=O)[C@H](CCCCN)NC(=O)[C@H](CCC(N)=O)NC(=O)[C@H](CCCCN)NC(=O)[C@H](CC(C)C)NC(=O)[C@H](CC(N)=O)NC(C)=O)C(=O)N[C@@H](CCCCN)C(=O)N[C@H]1CCC(=O)NCCCC[C@@H](C(=O)N[C@@H](CCCCN)C(=O)N[C@@H](CC(=O)O)C(=O)N[C@@H](CCC(=O)O)C(N)=O)NC(=O)[C@H](CCCCN)NC(=O)[C@H](C(C)C)NC(=O)[C@H](C(C)C)NC1=O) [Compound 161] , give its measured [θ]222/[θ]208 ratio of ellipticities value.
0.31

For the substance Ac-KIKHVVKLKDENSQLKSEVSKLRSQLVKRK-NH2 [Compound 265] , give its measured [θ]222/[θ]208 ratio of ellipticities value.
0.40

For the substance Ac-NLKQKIKHVVKLKDENSQLKSEVSKLRSQLVKRKQN-NH2 [Compound 275] , give its measured [θ]222/[θ]208 ratio of ellipticities value.
0.35

For the substance Ac-(cyclo-7,11)-VSKLRS[ELVKK]KQN-NH2 (Ac-VSKLRSELVKKKQN-NH2; lactam 7-11; SMILES CC(=O)N[C@H](C(=O)N[C@@H](CO)C(=O)N[C@@H](CCCCN)C(=O)N[C@@H](CC(C)C)C(=O)N[C@@H](CCCNC(=N)N)C(=O)N[C@@H](CO)C(=O)N[C@H]1CCC(=O)NCCCC[C@@H](C(=O)N[C@@H](CCCCN)C(=O)N[C@@H](CCC(N)=O)C(=O)N[C@@H](CC(N)=O)C(N)=O)NC(=O)[C@H](CCCCN)NC(=O)[C@H](C(C)C)NC(=O)[C@H](CC(C)C)NC1=O)C(C)C) [Compound 153] , give its measured [θ]222/[θ]208 ratio of ellipticities value.
0.54

====

# test method notes: Circular dichroism (CD) spectroscopy of HABD2 peptides in Milli-Q water (Example 1)
# Format: physicochemical
# measurement setup: λ = 192 nm; 0.5 mM in Milli-Q water
# Description: In addition, a large mean residue ellipticity indicates greater α-helical character. […] This was predicted to be the case, as there is a lack of contributing residues that might form a hydrophobic core, thereby helping to stabilize the secondary structure of the linear peptide. For this reason, bridges were introduced into the peptides. […] A peptide's α-helicity can be quantified using equations 1-3: fH=[([θ]obs222−[θ]c)/([θ]max222−[θ]c)] […]
Bridges are numbered along the chain shown (N, C = ends).
experimental readout: Molar ellipticity [θ]192

For the substance H-(cyclo-7,11)-VSKLRS[ELVKK]KQN-NH2 (H-VSKLRSELVKKKQN-NH2; lactam 7-11; SMILES CC(C)C[C@H](NC(=O)[C@H](CCCCN)NC(=O)[C@H](CO)NC(=O)[C@@H](N)C(C)C)C(=O)N[C@@H](CCCNC(=N)N)C(=O)N[C@@H](CO)C(=O)N[C@H]1CCC(=O)NCCCC[C@@H](C(=O)N[C@@H](CCCCN)C(=O)N[C@@H](CCC(N)=O)C(=O)N[C@@H](CC(N)=O)C(N)=O)NC(=O)[C@H](CCCCN)NC(=O)[C@H](C(C)C)NC(=O)[C@H](CC(C)C)NC1=O) [Compound 136] , give its measured Molar ellipticity [θ]192 value.
1437.80 deg cm^2 dmol^−1 residue^−1
